test: CREB reporter modulators without forskolin, primary screen, cell-based, PC12, CRE-LacZ reporter, unstimulated (AID 1145)
cond: no forskolin, luminescence, 4.5 h, higher = more signal, called active from +8 up or from −8 down
Consider the following molecules; for each one, report its z-score.
Form field (numeric): enter value without unit.

Input line: z-score for COc1c(C)cc(-c2cc3c(c(CCc4ccccc4)n2)[Si](C(C)C)(C(C)C)O[C@H]3c2ccccc2)cc1C ?
Output line: -0.272

Input line: z-score for COC(=O)C[C@H]1O[C@]2(C(=O)N(C)c3ccccc32)[C@@H](C)[C@@H]1[Si](C)(C)c1ccccc1 ?
Output line: -0.141

Input line: z-score for COCCOC(=O)N1C(=O)[C@@]2(c3cc(C#CCC(C(=O)OC)C(=O)OC)ccc31)[C@H](C(N)=O)[C@H]1C(=O)O[C@H](c3ccccc3)[C@H](c3ccccc3)N1[C@@H]2c1ccccc1OCCO ?
Output line: -1.84

Input line: z-score for COCCOC(=O)N1C(=O)[C@@]2(c3cc(C#CCCO)ccc31)[C@H](C(=O)N1CCN(c3ncccn3)CC1)[C@H]1C(=O)O[C@H](c3ccccc3)[C@H](c3ccccc3)N1[C@@H]2c1ccc(OCCO)cc1 ?
Output line: 1.05

Input line: z-score for CC1C2C(CCCO)=CC(C3C(=O)N(C(N)=O)C(=O)C23)N1Cc1cccc(OC(F)(F)F)c1 (stereo not drawn) ?
Output line: -0.233

Input line: z-score for COC(=O)Cn1c(C(=O)N(C)C)cc2c1C[C@H]1CN(C(=O)c3ccccc3)[C@@](Cc3ccccc3)(C(=O)OC)[C@@H]21 ?
Output line: -0.189

Input line: z-score for CO[C@H]1O[C@H](CO)[C@@H](OC(=O)Nc2cccc(F)c2)[C@H](OC(=O)Nc2ccc3c(c2)OCO3)[C@@H]1OC(=O)Nc1ccc2c(c1)OCO2 ?
Output line: -0.207

Input line: z-score for COC(=O)[C@@]1(Cc2ccc(OC)cc2)[C@@H]2[C@@H](CC(=O)[C@H]2CC(=O)C(=O)N(C)C)CN1C(=O)c1ccccc1 ?
Output line: 0.39

Input line: z-score for O=C1OCC=C[C@H]2OC34C=CCN(Cn5nnc6ccccc65)C(=O)[C@H]3N(CCO)C(=O)[C@@H]4[C@@H]12 (stereo partly drawn) ?
Output line: 0.455

Input line: z-score for CN1C(=O)C2C=CC(C(O)c3ccc(I)cc3)N(N(c3ccccc3)c3ccccc3)C2C1=O (stereo not drawn) ?
Output line: -0.136

Input line: z-score for O=C1O[C@H](c2ccccc2)[C@H](c2ccccc2)N2[C@H]1[C@@H](C(=O)N1CCCCCCC1)[C@]1(C(=O)Nc3ccc(C#CCCO)cc31)[C@H]2c1ccc(O)cc1 ?
Output line: -0.438

Input line: z-score for COCCCNC(=O)[C@@]1(c2ccc([N+](=O)[O-])cc2)CC(=O)N(C2CCCCC2)[C@@H]1c1ccc(CO)cc1I ?
Output line: 0.414

Input line: z-score for COCCOC(=O)N1C(=O)[C@@]2(c3cc(C#CC4=CCCCC4)ccc31)[C@H](C(=O)N1CCCCCCC1)[C@H]1C(=O)O[C@H](c3ccccc3)[C@H](c3ccccc3)N1[C@@H]2c1ccccc1OCCO ?
Output line: -1.7
